Data origin, for the record: a melting point compilation (Tetko et al.; mined from patent text by program, amines drawn as free bases though some values may be those of a salt)

Listed here are molecules together with their documented melting point.

// known answers, use as guide
MOLECULE	melting point
Nc1ccc(CCC(=O)N(c2ccccc2)c2ccccc2)cc1[N+](=O)[O-]	189 to 190 °C
Cc1cc(-c2nnc3c4ccccc4c(OCc4ncn(C)n4)nn23)on1	270 to 272 °C
COc1ccc(OC(=O)[C@H](C)NC(=O)OCc2ccccc2)cc1	128 to 129 °C
CCCCCCCNCCCCCCCCSc1nc(-c2ccccc2)c(-c2ccccc2)[nH]1	87 to 89 °C

Next item in the queue.
IN: Look up melting point: CCc1nc2ccccc2c2ccc(F)cc12
OUT: 105 to 106 °C
